So I've got a bunch of binders here, and I need their IC50 (M) THP-1 ARG2 (healthy human plasma) values.
# assayedTarget: T1, THP-1 lysate derived human trimeric ARG2 (human, UniProt P78540 23-354, limits assumed)
# T1 sequence (looked up): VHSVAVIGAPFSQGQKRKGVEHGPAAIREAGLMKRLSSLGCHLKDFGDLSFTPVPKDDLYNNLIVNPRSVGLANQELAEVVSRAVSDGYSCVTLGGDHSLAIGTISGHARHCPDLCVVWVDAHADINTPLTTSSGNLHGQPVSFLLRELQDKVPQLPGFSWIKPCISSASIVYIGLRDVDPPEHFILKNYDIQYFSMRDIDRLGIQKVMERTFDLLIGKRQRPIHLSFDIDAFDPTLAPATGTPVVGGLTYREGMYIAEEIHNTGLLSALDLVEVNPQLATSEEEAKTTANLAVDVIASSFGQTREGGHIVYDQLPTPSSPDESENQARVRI
# assayComment: cell-based or functional assay
Respond numerically; units are M and should not be typed.

input: GET /values?readout=IC50 (M) THP-1 ARG2 (healthy human plasma)&item= C0021065 recombinant human IgG1 (antibody, V domains shown) VH: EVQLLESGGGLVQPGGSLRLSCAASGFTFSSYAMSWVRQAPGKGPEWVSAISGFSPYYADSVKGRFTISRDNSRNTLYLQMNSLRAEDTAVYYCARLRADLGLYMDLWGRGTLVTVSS VL: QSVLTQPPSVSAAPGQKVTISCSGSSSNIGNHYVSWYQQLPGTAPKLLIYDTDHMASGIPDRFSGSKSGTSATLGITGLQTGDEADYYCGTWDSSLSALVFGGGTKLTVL
output: 2.98e-09

input: Let us now turn to C0021139 recombinant human IgG1 (antibody, V domains shown) VH: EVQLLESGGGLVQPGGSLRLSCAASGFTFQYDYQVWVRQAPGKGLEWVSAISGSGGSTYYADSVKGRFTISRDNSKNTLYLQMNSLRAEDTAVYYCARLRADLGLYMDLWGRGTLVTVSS VL: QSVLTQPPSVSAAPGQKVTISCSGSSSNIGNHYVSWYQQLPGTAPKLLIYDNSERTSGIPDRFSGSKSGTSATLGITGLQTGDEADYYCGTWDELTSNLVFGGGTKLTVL
output: 2.02e-09

input: Let us now turn to C0021092 recombinant human IgG1 (antibody, V domains shown) VH: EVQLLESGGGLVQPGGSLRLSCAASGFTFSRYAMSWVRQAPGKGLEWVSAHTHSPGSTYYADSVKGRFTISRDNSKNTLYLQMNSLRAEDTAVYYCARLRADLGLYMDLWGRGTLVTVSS VL: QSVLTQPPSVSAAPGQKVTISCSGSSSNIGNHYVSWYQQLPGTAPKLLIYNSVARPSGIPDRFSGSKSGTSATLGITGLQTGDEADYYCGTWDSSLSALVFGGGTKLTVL
output: 2.82e-09

input: Let us now turn to C0021022 recombinant human IgG1 (antibody, V domains shown) VH: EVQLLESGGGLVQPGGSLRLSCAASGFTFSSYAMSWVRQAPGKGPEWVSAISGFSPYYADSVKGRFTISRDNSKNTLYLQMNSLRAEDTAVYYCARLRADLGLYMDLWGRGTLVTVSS VL: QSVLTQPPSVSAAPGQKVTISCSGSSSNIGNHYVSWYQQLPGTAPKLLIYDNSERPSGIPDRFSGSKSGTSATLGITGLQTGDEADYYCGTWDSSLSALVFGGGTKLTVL
output: 2.71e-09

input: Let us now turn to C0021133 recombinant human IgG1 (antibody, V domains shown) VH: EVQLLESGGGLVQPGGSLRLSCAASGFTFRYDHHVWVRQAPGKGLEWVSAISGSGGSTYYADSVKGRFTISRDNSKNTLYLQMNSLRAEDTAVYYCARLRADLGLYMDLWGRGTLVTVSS VL: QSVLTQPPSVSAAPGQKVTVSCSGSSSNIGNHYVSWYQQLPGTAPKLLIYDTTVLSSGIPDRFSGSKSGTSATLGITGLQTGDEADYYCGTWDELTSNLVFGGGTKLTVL
output: 3.7e-09

input: Let us now turn to C0021061 recombinant human IgG1 (antibody, V domains shown) VH: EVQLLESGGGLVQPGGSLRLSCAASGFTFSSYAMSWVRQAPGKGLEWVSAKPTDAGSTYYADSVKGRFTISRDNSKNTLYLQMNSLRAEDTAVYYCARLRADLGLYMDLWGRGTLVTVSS VL: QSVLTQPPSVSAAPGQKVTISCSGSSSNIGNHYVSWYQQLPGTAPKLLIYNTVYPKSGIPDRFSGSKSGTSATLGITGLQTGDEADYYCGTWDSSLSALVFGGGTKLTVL
output: 2.9e-09
